Assay system: T1, recombinant human VEGF165 (human, UniProt P15692-4 27-191, biotinylated in the competition assays)
T1 construct: Bought protein; also called hVEGF165; rhVEGF165
T1 sequence (P15692 other isoform, or with tags, fused parts or gaps): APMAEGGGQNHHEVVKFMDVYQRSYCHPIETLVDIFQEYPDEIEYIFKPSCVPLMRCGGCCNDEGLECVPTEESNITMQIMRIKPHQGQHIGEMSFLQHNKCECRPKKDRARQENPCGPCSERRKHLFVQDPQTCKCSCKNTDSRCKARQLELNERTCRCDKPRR
Procedure text: AlphaScreen, hVEGF165/hVEGFR2-Fc competition
Protocol: Finally, streptavidin donor beads (20 μg/ml) are added and after 1 hour of incubation in the dark, fluorescence is measured on the Envision microplate reader.
Some binders, each annotated with its measured pIC50.
Recall that pIC50 is obtained by taking minus log10 of the concentration measured in molar.

| Binder | pIC50 |
| --- | --- |
| VEGFBII023 (VHH, not shown: small tags and cut ends, Bivalent anti-VEGF VHH; also called VEGFBII23B04-40GS-10E07) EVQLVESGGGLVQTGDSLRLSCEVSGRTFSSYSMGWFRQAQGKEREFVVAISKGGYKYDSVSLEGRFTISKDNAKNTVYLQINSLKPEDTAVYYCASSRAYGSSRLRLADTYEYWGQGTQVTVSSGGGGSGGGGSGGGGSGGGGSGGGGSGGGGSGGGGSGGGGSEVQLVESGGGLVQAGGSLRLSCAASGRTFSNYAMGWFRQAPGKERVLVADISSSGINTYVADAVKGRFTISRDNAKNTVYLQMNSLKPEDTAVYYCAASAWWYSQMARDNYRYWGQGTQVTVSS | 10.42 |
| VEGFBII025 (VHH, not shown: small tags and cut ends, Bivalent anti-VEGF VHH; also called VEGFBII10E07-40GS-23B04) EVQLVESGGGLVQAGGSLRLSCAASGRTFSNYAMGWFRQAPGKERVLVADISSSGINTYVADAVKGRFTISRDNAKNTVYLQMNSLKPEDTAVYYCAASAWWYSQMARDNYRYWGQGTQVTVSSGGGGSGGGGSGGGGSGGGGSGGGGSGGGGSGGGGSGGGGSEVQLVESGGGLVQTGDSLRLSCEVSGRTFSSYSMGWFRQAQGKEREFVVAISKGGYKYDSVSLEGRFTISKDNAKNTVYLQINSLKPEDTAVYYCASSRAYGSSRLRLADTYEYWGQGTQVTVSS | 10.29 |
| VEGFBII022 (VHH, not shown: small tags and cut ends, Bivalent (heterodimeric) anti-VEGF VHH; also called VEGFBII23B04-9GS-5B05) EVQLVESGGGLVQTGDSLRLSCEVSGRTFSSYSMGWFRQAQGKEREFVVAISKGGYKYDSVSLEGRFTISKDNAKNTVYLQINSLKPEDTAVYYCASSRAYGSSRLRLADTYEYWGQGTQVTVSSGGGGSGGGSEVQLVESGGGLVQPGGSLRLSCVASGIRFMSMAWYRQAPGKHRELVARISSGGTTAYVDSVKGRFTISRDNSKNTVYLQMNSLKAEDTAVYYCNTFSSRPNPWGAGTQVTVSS | 11.15 |
| VEGFBII024 (VHH, not shown: small tags and cut ends, Bivalent anti-VEGF VHH; also called VEGFBII23B04-40GS-86H09) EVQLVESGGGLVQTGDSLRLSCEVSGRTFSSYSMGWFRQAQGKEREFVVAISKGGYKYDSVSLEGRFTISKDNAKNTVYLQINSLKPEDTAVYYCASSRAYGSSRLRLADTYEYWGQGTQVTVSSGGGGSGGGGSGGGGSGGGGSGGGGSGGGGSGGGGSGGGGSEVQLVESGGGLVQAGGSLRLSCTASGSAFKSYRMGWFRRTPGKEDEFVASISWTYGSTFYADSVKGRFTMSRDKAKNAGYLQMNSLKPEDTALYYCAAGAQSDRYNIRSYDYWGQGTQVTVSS | 10.92 |

As a next step, examine the binder that follows.
# query: pIC50 of entry VEGFBII021 (VHH, not shown: small tags and cut ends, Bivalent (heterodimeric) anti-VEGF VHH; also called VEGFBII23B04-40GS-5B05) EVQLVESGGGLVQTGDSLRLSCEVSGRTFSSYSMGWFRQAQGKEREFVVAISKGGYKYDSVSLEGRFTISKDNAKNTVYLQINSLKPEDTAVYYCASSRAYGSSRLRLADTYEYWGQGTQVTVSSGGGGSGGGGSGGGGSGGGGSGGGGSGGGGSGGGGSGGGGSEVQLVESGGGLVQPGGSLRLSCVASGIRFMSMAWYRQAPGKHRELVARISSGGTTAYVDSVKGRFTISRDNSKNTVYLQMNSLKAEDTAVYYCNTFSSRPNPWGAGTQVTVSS
11.05

Ref: patent US20140120095A1
